target: full-length B-Catenin (Uniprot ID P35222) (Homo sapiens); construct: 65 nM full-length B-Catenin (Uniprot ID P35222); experiment: Alphascreen binding assay (beta-catenin / biotin-TCF4 10-53)
observation_type: EC50
Answers without a unit are incomplete; give the number and then its unit.

molecule	measurement_target	EC50
CC[C@H](C)[C@H](NC(=O)[C@H](CC(=O)O)NC(=O)[C@H](C)NC(C)=O)C(=O)N[C@]1(C)CCN(C)C(=O)OCC=CCCCCC[C@@](C)(C(=O)N[C@@H](Cc2ccccc2)C(=O)N[C@@H](Cc2c[nH]c3ccccc23)C(=O)N[C@@H](C)C(N)=O)NC(=O)[C@H](C)NC(=O)[C@H](Cc2ccccc2)NC(=O)[C@H](C)NC(=O)[C@H](C)NC(=O)[C@H](CCC(=O)O)NC(=O)[C@H](CC(=O)O)NC1=O	full-length B-Catenin (Uniprot ID P35222) (Homo sapiens)	734 nM

Moving on to the next molecule.
## Input Field request: EC50 | item: CC(=O)N1CCC[C@]12CC=CCCCC1(CCCC=CCCCCCC[C@@](C)(C(=O)N[C@@H](Cc3ccccc3)C(=O)N[C@@H](Cc3c[nH]c4ccccc34)C(=O)N[C@@H](CCC(N)=O)C(N)=O)NC(=O)[C@H](C(C)C)NC(=O)[C@H](Cc3ccc(C(F)(F)F)cc3)NC(=O)[C@H](C)NC(=O)[C@H](C)NC(=O)[C@H](CC(=O)O)NC(=O)[C@H](CC(=O)O)NC1=O)NC(=O)[C@H](C)NC(=O)[C@H](CC(=O)O)NC2=O (some centres unmarked) [I-242]
## Output 4900 nM

----------
// reported EC50 per item
Target: full-length B-Catenin (Uniprot ID P35222) (Homo sapiens, UniProt P35222)
Construct: 65 nM full-length B-Catenin (Uniprot ID P35222)
Sequence (P35222 1-781): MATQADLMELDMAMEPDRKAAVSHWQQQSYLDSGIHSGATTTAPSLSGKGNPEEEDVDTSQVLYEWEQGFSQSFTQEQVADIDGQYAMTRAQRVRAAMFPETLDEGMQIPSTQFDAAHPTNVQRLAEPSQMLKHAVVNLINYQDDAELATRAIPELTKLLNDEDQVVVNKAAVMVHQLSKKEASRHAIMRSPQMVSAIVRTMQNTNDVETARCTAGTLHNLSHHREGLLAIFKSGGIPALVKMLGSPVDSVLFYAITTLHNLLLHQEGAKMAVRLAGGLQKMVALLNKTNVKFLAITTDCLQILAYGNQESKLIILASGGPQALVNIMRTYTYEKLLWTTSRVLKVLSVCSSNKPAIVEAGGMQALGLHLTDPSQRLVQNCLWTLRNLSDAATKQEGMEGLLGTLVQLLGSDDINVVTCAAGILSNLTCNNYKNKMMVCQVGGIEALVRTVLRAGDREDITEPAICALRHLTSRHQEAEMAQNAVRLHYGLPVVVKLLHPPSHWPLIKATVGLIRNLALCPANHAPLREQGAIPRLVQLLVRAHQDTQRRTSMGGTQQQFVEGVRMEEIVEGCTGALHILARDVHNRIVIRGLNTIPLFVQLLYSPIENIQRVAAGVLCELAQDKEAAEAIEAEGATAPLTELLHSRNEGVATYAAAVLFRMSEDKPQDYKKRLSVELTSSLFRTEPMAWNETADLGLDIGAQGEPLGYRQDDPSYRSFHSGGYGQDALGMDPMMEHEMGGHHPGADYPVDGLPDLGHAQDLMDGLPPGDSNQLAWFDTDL
Assay: Alphascreen binding assay (beta-catenin / biotin-TCF4 10-53)
Answers without a unit are incomplete; give the number and then its unit.

Below, each entry is followed by its recorded EC50 result.
compound	EC50
CC[C@H](C)[C@@H]1NC(=O)[C@H](CC(=O)O)NC(=O)[C@]2(CC=CCCCC3(CCCC=CCCCCCC[C@@](C)(C(=O)N[C@@H](Cc4ccccc4)C(=O)N[C@@H](Cc4c[nH]c5ccccc45)C(=O)N[C@@H](CCC(N)=O)C(N)=O)NC(=O)[C@H](CCC(N)=O)NC(=O)[C@H](Cc4ccccc4)NC(=O)[C@H](C)NC(=O)[C@H](C)NC(=O)[C@H](CCC(=O)O)NC(=O)[C@H](CC(=O)O)NC3=O)NC1=O)CCCN2C(C)=O (stereo partly drawn) [I-180]	88 nM
COc1ccc(C[C@@H]2NC(=O)[C@H](C)NC(=O)[C@H](C)NC(=O)[C@H](CCC(=O)O)NC(=O)[C@H](CC(=O)O)NC(=O)C3(CCCC=CCCCCCC[C@@](C)(C(=O)N[C@@H](Cc4ccccc4)C(=O)N[C@@H](Cc4c[nH]c5ccccc45)C(=O)N[C@@H](CCC(N)=O)C(N)=O)NC(=O)[C@H](C(C)C)NC2=O)CCCC=CC[C@]2(CCCN2C(C)=O)C(=O)N[C@@H](CC(=O)O)C(=O)N[C@@H](C)C(=O)N3)cc1 (stereo partly drawn) [I-217]	90 nM

## Input Field request: EC50 | item: CC(=O)N1CCC[C@]12CC=CCCCC1(CCCC=CCCCCCC[C@@](C)(C(=O)N[C@@H](Cc3ccccc3)C(=O)N[C@@H](Cc3c[nH]c4ccccc34)C(=O)N[C@@H](CCC(N)=O)C(N)=O)NC(=O)[C@H](C(C)C)NC(=O)[C@H](Cc3ccccc3)NC(=O)[C@H](C)NC(=O)[C@H](C)NC(=O)[C@H](CCC(N)=O)NC(=O)[C@H](CC(=O)O)NC1=O)NC(=O)[C@H](C)NC(=O)[C@H](CC(=O)O)NC2=O (stereo partly drawn) [I-127]
## Output 552 nM

----------
target: full-length beta-Catenin (Uniprot ID P35222) (Homo sapiens); construct: 10 nM full-length beta-Catenin (Uniprot ID P35222); assay: Fluorescence polarization IC50 (beta-catenin / 5FAM-TCF4 10-53 competition); format: binding; details: Table E2-1; read-out: beta-Catenin FP IC50
observation_type: pIC50
By convention, pIC50 is the negative base-10 log of a molar concentration.

Below, each entry is followed by its recorded pIC50 result.
compound	measurement_target	pIC50
CC(=O)N1CCC[C@]12CC=CCCCC1(CCCC=CCCCCCC[C@@](C)(C(=O)N[C@@H](Cc3ccccc3)C(=O)N[C@@H](Cc3c[nH]c4ccccc34)C(=O)N[C@@H](CCC(N)=O)C(N)=O)NC(=O)[C@H](C(C)C)NC(=O)[C@H](Cc3ccc(N)cc3)NC(=O)[C@H](C)NC(=O)[C@H](C)NC(=O)[C@H](CC(=O)O)NC(=O)[C@H](CC(=O)O)NC1=O)NC(=O)[C@H](C)NC(=O)[C@H](CC(=O)O)NC2=O (stereo partly drawn)	full-length beta-Catenin (Uniprot ID P35222) (Homo sapiens)	5.46
CC[C@H](C)[C@@H]1NC(=O)[C@H](CC(=O)O)NC(=O)[C@]2(CC=CCCCC3(CCCC=CCCCCCC[C@@](C)(C(=O)N[C@@H](Cc4ccccc4)C(=O)N[C@@H](Cc4c[nH]c5ccccc45)C(=O)N[C@@H](C)C(N)=O)NC(=O)[C@H](CCC(N)=O)NC(=O)[C@H](Cc4ccccc4)NC(=O)[C@H](C)NC(=O)[C@H](C)NC(=O)[C@H](CCC(=O)O)NC(=O)[C@H](CC(=O)O)NC3=O)NC1=O)CCCN2C(C)=O (stereo partly drawn)	full-length beta-Catenin (Uniprot ID P35222) (Homo sapiens)	6.00

Moving on to the next compound.
## Input Field request: pIC50 | item: CC(=O)N1CCC[C@]12CC=CCCCC1(CCCC=CCCCCC[C@@](C)(C(=O)N[C@@H](Cc3ccccc3)C(=O)N[C@@H](Cc3c[nH]c4ccccc34)C(=O)N[C@@H](CCC(N)=O)C(N)=O)NC(=O)[C@H](C(C)C)NC(=O)[C@H](Cc3ccccc3)NC(=O)[C@H](C)NC(=O)[C@H](C)NC(=O)[C@H](CCC(=O)O)NC(=O)[C@H](CC(=O)O)NC1=O)NC(=O)[C@H](C)NC(=O)[C@H](CC(=O)O)NC2=O (stereo partly drawn)
## Output 5.30

----------
target: full-length beta-Catenin (Uniprot ID P35222) (Homo sapiens); construct: 10 nM full-length beta-Catenin (Uniprot ID P35222); assay: Fluorescence polarization IC50 (beta-catenin / 5FAM-TCF4 10-53 competition); type: binding; conditions: fluorescence polarization; read-out: beta-Catenin FP IC50
observation_type: log10 of IC50 (log10 of the value in µM)
Recall that a logarithmic scale is used here: each number is log10 of IC50 in µM.

compound	measurement_target	readout_value
CC(=O)N1CCC[C@]12CC=CCCCC1(CCCC=CCCCOC(=O)N3CC[C@@](C(=O)N[C@@H](Cc4ccccc4C(F)(F)F)C(=O)N[C@@H](Cc4csc5ccccc45)C(=O)N[C@@H](CO)C(N)=O)(C3)NC(=O)[C@H](CC(C)C)NC(=O)[C@H](Cc3ccccc3)NC(=O)[C@H](C)NC(=O)[C@H](C)NC(=O)[C@H](Cn3cc(CCC(=O)O)nn3)NC(=O)[C@H](CC(=O)O)NC1=O)NC(=O)[C@H](CC(C)(C)C)NC(=O)[C@H](CC(=O)O)NC2=O (stereo partly drawn) [I-2371]	full-length beta-Catenin (Uniprot ID P35222) (Homo sapiens)	-2.30

## Input What log10 of IC50 appears in the records for this compound with full-length beta-Catenin (Uniprot ID P35222) (Homo sapiens)? CC(=O)N1CCC[C@]12CC=CCCCC1(CCCC=CCCCOC(=O)N3CC[C@@](C(=O)N[C@@H](Cc4ccsc4)C(=O)N[C@@H](Cc4csc5ccccc45)C(=O)N[C@@H](Cc4c[nH]c5ccccc45)C(N)=O)(C3)NC(=O)[C@H](CC(C)C)NC(=O)[C@H](Cc3ccccc3)NC(=O)[C@H](C)NC(=O)[C@H](C)NC(=O)[C@H](CC(=O)O)NC(=O)[C@H](CC(=O)O)NC1=O)NC(=O)[C@H](CC(C)(C)C)NC(=O)[C@H](CC(=O)O)NC2=O (stereo partly drawn)
## Output -1.30

## Input What log10 of IC50 appears in the records for this compound with full-length beta-Catenin (Uniprot ID P35222) (Homo sapiens)? CC[C@H](C)[C@@H]1NC(=O)[C@H](CC(=O)O)NC(=O)[C@]2(CC=CCCCC3(CCCC=CCCCCCC[C@@](C)(C(=O)N[C@@H](Cc4ccccc4)C(=O)N[C@@H](Cc4csc5ccccc45)C(=O)N[C@@H](CCC(N)=O)C(N)=O)NC(=O)[C@H](CCC(N)=O)NC(=O)[C@H](Cc4ccccc4)NC(=O)[C@H](C)NC(=O)[C@H](C)NC(=O)[C@H](CCCNC(=N)N)NC(=O)[C@H](CC(=O)O)NC3=O)NC1=O)CCCN2C(C)=O (stereo partly drawn) [I-614]
## Output 0.06

## Input What log10 of IC50 appears in the records for this compound with full-length beta-Catenin (Uniprot ID P35222) (Homo sapiens)? CC(=O)N1CCC[C@]12CC=CCCCC1(CCCC=CCCCCCC[C@@](C)(C(=O)N[C@@H](Cc3ccccc3)C(=O)N[C@@H](Cc3csc4ccccc34)C(=O)N[C@@H](CCC(N)=O)C(N)=O)NC(=O)[C@H](CC(N)=O)NC(=O)[C@H](Cc3cccc(C)c3)NC(=O)[C@H](C)NC(=O)[C@H](C)NC(=O)[C@H](CCC(=O)O)NC(=O)[C@H](CC(=O)O)NC1=O)NC(=O)[C@H](C)NC(=O)[C@H](CC(=O)O)NC2=O (stereo partly drawn)
## Output -0.99

## Input What log10 of IC50 appears in the records for this compound with full-length beta-Catenin (Uniprot ID P35222) (Homo sapiens)? CC(=O)N1CCC[C@]12CC=CCCCC1(CCCC=CCCCOC(=O)N3CC[C@@](C(=O)N[C@@H](Cc4ccsc4)C(=O)N[C@@H](Cc4csc5ccccc45)C(=O)N[C@@H](Cc4ccccc4)C(N)=O)(C3)NC(=O)[C@H](CC(C)C)NC(=O)[C@H](Cc3ccccc3)NC(=O)[C@H](C)NC(=O)[C@H](CCC(N)=O)NC(=O)[C@H](Cc3cccc(C(=O)O)c3)NC(=O)[C@H](CC(=O)O)NC1=O)NC(=O)[C@H](CC(C)(C)C)NC(=O)[C@H](CC(=O)O)NC2=O (stereo partly drawn)
## Output -1.89

## Input What log10 of IC50 appears in the records for this compound with full-length beta-Catenin (Uniprot ID P35222) (Homo sapiens)? CC(=O)N1CCC[C@]12CC=CCCCC1(CCCC=CCCCCCC[C@@](C)(C(=O)N[C@@H](Cc3ccccc3)C(=O)N[C@@H](Cc3csc4ccccc34)C(=O)N[C@@H](Cc3c[nH]cn3)C(N)=O)NC(=O)[C@H](CC(N)=O)NC(=O)[C@H](Cc3ccccc3)NC(=O)[C@H](C)NC(=O)[C@H](C)NC(=O)[C@H](CCC(=O)O)NC(=O)[C@H](CC(=O)O)NC1=O)NC(=O)[C@H](CC1CCCCC1)NC(=O)[C@H](CC(=O)O)NC2=O (stereo partly drawn)
## Output -1.30

Hey, just so you know, these numbers are from patent US20240116985A1.
